Test system: Vero-76 cells
experiment_summary: Cell cytotoxicity assay (MTT) on Vero-76 cells
Assay type: cell-based, Cercopithecus Aethiops
study_conditions: ratio of Vero-76 CC50 to hTAAR1 EC50
attribute_measured: Therapeutic index (CC50/EC50)
Give bare numbers.

The cases that follow already have their Therapeutic index (CC50/EC50) on record.
1. Cl.N=C(N)N1CCN(c2cccc(Cl)c2Cl)CC1 : 4100
2. Cc1ccccc1N1CCN(C(=N)N)CC1.Cl : 2667
3. Cl.N=C(N)N1CCN(c2ccccn2)CC1 : 37
4. COc1ccccc1N1CCN(C(=N)N)CC1.Cl : 892
5. N=C(N)N1CCN(c2cccc(C(F)(F)F)c2)CC1 : 1562
6. Cl.N=C(N)N1CCN(c2ccccc2Cl)CC1 : 625
7. Cl.N=C(N)N1CCN(c2cccc(Cl)c2)CC1 : 45
8. Cl.N=C(N)N1CCN(c2ccc(Cl)c(Cl)c2)CC1 : 1254
9. COc1cccc(N2CCN(C(=N)N)CC2)c1.Cl : 357

Note: attention shifts to another entry.
Return Therapeutic index (CC50/EC50) measured with Vero-76 cells given this compound: Cl.N=C(N)N1CCN(c2ccccc2)CC1
227
